The reported numbers originate from ChEMBL document CHEMBL2417361.

tested on: Plasmodium falciparum; test: Antiparasitic activity against chloroquine/pyrimethamine-resistant Plasmodium falciparum K1 infected in erythrocytes assessed as parasite growth inhibition after 48 hrs by [3H]-hypoxanthine incorporation assay; assay type: functional, organism-based
quantity_kind: EC50 (µM)
Answer with a number only, understood to be in µM.

sample_smiles: O=c1ccn([C@H]2C[C@H](O)[C@@H](CNC(c3ccccc3)c3ccccc3)O2)c(=O)[nH]1
value: 12
//
sample_smiles: O=c1ccn(CCCCOC(c2ccccc2)c2ccccc2)c(=O)[nH]1
value: 14
//
sample_smiles: O=c1ccn(CCCCNC(c2ccccc2)c2ccccc2)c(=O)[nH]1
value: 2.6

Lookup result for O=c1ccn(CCCNC(c2ccccc2)c2ccccc2)c(=O)[nH]1 ; measured EC50: 5.5
